Values from paper PMC5437200

- Experimental details: octanol-water shake experiment for logKOW and logDOW
- Format: physicochemical
- Applied conditions: n-octanol/ultrapure water, room temperature
// reported LogK OW (exp) per item
Give the value as a plain number.

# Mol, LogK OW (exp)
records = [
    ("Nc1ccc(S(=O)(=O)Nc2nccs2)cc1", "−0.16"),
    ("Cc1ccnc(NS(=O)(=O)c2ccc(N)cc2)n1", 0.19),
    ("Nc1ccc(S(=O)(=O)Nc2ccccn2)cc1", 0.04),
    ("Nc1ccc(S(=O)(=O)Nc2ccc(Cl)nn2)cc1", 0.36),
]

Now look at this one.
stdin: Can you share its LogK OW (exp)? I mean this compound: Cc1nnc(NS(=O)(=O)c2ccc(N)cc2)s1
stdout: 0.01

* * *

// reported α2 ionization degree per item
- Experimental details: ionization degrees of sulfonamides in the donor solution (calculated)
- Assay type: physicochemical
- Applied conditions: initial pH 5.64; calculated using equations in ref 39
Numeric only. Scale: %

# Compound, Value unit, α2 ionization degree
records = [
    ("Nc1ccc(S(=O)(=O)Nc2ccccn2)cc1 [SPD, sulfapyridine]", "%", 99.9),
    ("Nc1ccc(S(=O)(=O)Nc2nccs2)cc1 [STZ, sulfathiazole]", "%", 100.0),
    ("Cc1ccnc(NS(=O)(=O)c2ccc(N)cc2)n1 [SMZ, sulfamerazine]", "%", 100.0),
    ("Nc1ccc(S(=O)(=O)Nc2ccc(Cl)nn2)cc1 [SCP, sulfachloropyridazine]", "%", 100.0),
]

stdin: Can you share its α2 ionization degree? I mean this compound: COc1cc(NS(=O)(=O)c2ccc(N)cc2)nc(OC)n1 [SDX, sulfadimethoxine]
stdout: 99.9

stdin: And what about the compound Cc1nnc(NS(=O)(=O)c2ccc(N)cc2)s1 [SMT, sulfamethiazole] ?
stdout: 100.0

* * *

// reported α3 ionization degree (negatively charged form) per item
- Experimental details: ionization degrees of sulfonamides in the donor solution (calculated)
- Type: physicochemical
- Applied conditions: initial pH 5.64; calculated using equations in ref 39
Numeric only. Scale: %

# Compound, Observed result
data = [
    ("Nc1ccc(S(=O)(=O)Nc2nccs2)cc1 [STZ, sulfathiazole]", 3.4),
    ("Cc1nnc(NS(=O)(=O)c2ccc(N)cc2)s1 [SMT, sulfamethiazole]", 58.0),
    ("Nc1ccc(S(=O)(=O)Nc2ccc(Cl)nn2)cc1 [SCP, sulfachloropyridazine]", 58.0),
    ("Cc1ccnc(NS(=O)(=O)c2ccc(N)cc2)n1 [SMZ, sulfamerazine]", 6.5),
]

Now look at this one.
stdin: Can you share its α3 ionization degree (negatively charged form)? I mean this compound: COc1cc(NS(=O)(=O)c2ccc(N)cc2)nc(OC)n1 [SDX, sulfadimethoxine]
stdout: 35.5

* * *

- Experimental details: octanol-water shake experiment for logKOW and logDOW
- Assay type: physicochemical
- Applied conditions: n-octanol/ultrapure water pH 5.6, room temperature; read-out: LogD OW pH 5.6 (exp)
Assay readout: logD
Give the value as a plain number.

# annotated cases, reported logD shown
# Mol, Observed result
records = [
    ("Cc1nnc(NS(=O)(=O)c2ccc(N)cc2)s1", -0.34),
    ("Cc1ccnc(NS(=O)(=O)c2ccc(N)cc2)n1", 0.16),
    ("Nc1ccc(S(=O)(=O)Nc2ccc(Cl)nn2)cc1", 0),
    ("Nc1ccc(S(=O)(=O)Nc2ccccn2)cc1", 0.04),
]

stdin: Can you share its logD? I mean this molecule: Nc1ccc(S(=O)(=O)Nc2nccs2)cc1
stdout: -0.17
